The values you see were collected from ChEMBL document CHEMBL1697781.

Attribute: SGOT Increase - Index Value
system: Hepatotoxicity; assay: FDA HLAED, serum glutamic oxaloacetic transaminase (SGOT) increase; conditions: human

{"Compound": "CC(C)(C)NC(=O)[C@@H]1C[C@@H]2CCCC[C@@H]2CN1C[C@@H](O)[C@H](Cc1ccccc1)NC(=O)[C@H](CC(N)=O)NC(=O)c1ccc2ccccc2n1", "SGOT Increase - Index Value": 0}
{"Compound": "C=CC[N+]1([C@H]2C[C@H]3[C@@H]4CC[C@H]5C[C@H](O)[C@@H](N6CCOCC6)C[C@]5(C)[C@H]4CC[C@]3(C)[C@H]2OC(C)=O)CCCC1.[Br-] [ROCURONIUM BROMIDE]", "SGOT Increase - Index Value": 0}
{"Compound": "CC(C)OC(=O)CCC/C=C\\C[C@@H]1[C@@H](CC[C@@H](O)CCc2ccccc2)[C@H](O)C[C@@H]1O [LATANOPROST]", "SGOT Increase - Index Value": 0.2}
{"Compound": "Cc1cccc(C)c1OCC(C)N (centres undefined) [MEXILETINE]", "SGOT Increase - Index Value": 6.7}
